All figures here come from patent US6403573B1.

I'd appreciate it if you could supply melting point values for the items below.
Reply with just the number (in °C).

Measured melting point, CC1CCc2c(OC3CNC3)cc(F)cc21.Cl (centres unmarked) : 170

Measured melting point, Cl.c1cc2c(c(OC3CNC3)c1)CCCC2 : 187

Measured melting point, Cl.c1cc(OC2CNC2)c2ccsc2c1 : 203

Measured melting point, Cl.Clc1cc(Cl)c2ccccc2c1OC1CNC1 : 187

Measured melting point, Cl.c1ccc2c(OC3CNC3)cccc2c1 : 292

Measured melting point, Cl.c1ccc2c(SC3CNC3)cccc2c1 : 159

Measured melting point, Cl.c1cc2c(c(OC3CCNC3)c1)CCCC2 (centres unmarked) [Compound 9b] : 207

====

I'd appreciate it if you could supply melting point values for the items below.
Reply with just the number (in °C).

Measured melting point, COCc1ccc2ccccc2c1OC1CNC1.Cl : 127

Measured melting point, COc1ccc(OC2CNC2)c2ccccc12.Cl : 198

Measured melting point, COc1ccc2c(c1O[C@@H]1CCNC1)CCC2.Cl : 174

Measured melting point, Cl.Clc1ccc2c(c1OC1CNC1)CCC2 : 188

Measured melting point, COc1ccc2c(c1OC1CNC1)CCCC2.Cl : 164

Measured melting point, COc1ccc2c(c1OC1CNC1)CCC2.Cl : 166

Measured melting point, Cl.c1ccc2cc(OC3CNC3)ccc2c1 : 168

Measured melting point, COc1ccc2c(c1OC1CCNC1)CCC2.Cl (racemic) [Compound 10b] : 154

Measured melting point, Cc1ccc2ccccc2c1OC1CNC1.Cl : 171

Measured melting point, Cl.c1cc2c(c(OC3CNC3)c1)CCC2 : 65

Measured melting point, Cl.Cl.c1cc(OC2CNC2)c2ccncc2c1 : 198

Measured melting point, COc1ccc2c(c1O[C@H]1CCNC1)CCC2.Cl : 176

Measured melting point, Cc1ccc(OC2CNC2)c2ccccc12.Cl : 180
